Data provenance is patent US20250136606A1.

We begin with a simple list: items and their reported pEC50.
system: TRPML1 (Homo sapiens)
Sequence (Q9GZU1 whole entry L15A/L16A/L577A/L578A, form open): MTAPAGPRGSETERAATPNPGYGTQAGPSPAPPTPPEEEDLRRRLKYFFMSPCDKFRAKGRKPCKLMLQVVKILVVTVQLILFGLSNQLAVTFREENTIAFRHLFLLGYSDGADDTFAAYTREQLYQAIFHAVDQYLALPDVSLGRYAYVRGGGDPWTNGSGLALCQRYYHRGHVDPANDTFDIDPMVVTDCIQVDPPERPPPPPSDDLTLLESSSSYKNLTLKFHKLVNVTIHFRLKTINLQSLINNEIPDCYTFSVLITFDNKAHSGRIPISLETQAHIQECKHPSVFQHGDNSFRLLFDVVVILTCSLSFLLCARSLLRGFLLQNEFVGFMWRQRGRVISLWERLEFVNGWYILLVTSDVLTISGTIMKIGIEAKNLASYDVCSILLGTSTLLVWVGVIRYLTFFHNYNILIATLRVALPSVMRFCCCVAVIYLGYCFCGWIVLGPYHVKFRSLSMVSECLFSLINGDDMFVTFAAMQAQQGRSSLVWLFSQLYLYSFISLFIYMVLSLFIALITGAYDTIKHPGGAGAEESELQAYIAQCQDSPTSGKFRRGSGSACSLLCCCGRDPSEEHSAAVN
procedure-summary: Fluorescent TRPML1 assay (Fluo4-AM calcium fluorescence in doxycycline-induced HEK-293 Trex cells)
Assay type: cell-based
stated-conditions: fluorescent calcium assay
pEC50: −log10 of the molar value.

C[C@@H]1CN(c2ncnc3c2c(N2CCC[C@@H]2C)cn3-c2cccc(Cl)c2)CCN1C(=O)OC(C)(C)C
> 7.00

Check TRPML1 (Homo sapiens) data and give pEC50 for "C[C@H]1CN(C(=O)OC(C)(C)C)CCN1c1ncnc2c1c(N1CCC(C)(C)C1)cn2-c1cccc(C#N)c1" .
> 7.00

Please tell me the measured pEC50 for "C[C@H]1CN(C(=O)OCC(F)(F)F)CCN1c1ncnc2c1c(-c1ccccn1)cn2-c1cc(C#N)ccn1" ; system: TRPML1 (Homo sapiens).
6.30 to 7.00

// fetch pEC50; item: "CC(C)(C)OC(=O)N1CCN(c2ncnc3c2c(-c2ccccc2F)cn3-c2cc(C#N)ccn2)CC12CC2" ; system: TRPML1 (Homo sapiens)
6.30 to 7.00

GET pEC50 | system: TRPML1 (Homo sapiens) | item: "C[C@@H]1CN(c2cn(-c3cccc(C#N)c3)c3ncnc(N4CCN(C(=O)OC(C)(C)C)C[C@@H]4C)c23)CCO1"
6.30 to 7.00

Under TRPML1 (Homo sapiens): report pEC50 of "C[C@H]1CN(C(=O)OC(C)(C)C)CCN1c1ncnc2c1c(N1CCCC1)cn2-c1cc(F)cc(F)c1" .
> 7.00

Report the value of pEC50 obtained on TRPML1 (Homo sapiens) for "COc1cccc(-n2cc(-c3cccnc3)c3c(N4CCN(C(=O)OC(C)(C)C)C[C@@H]4C)ncnc32)c1" .
6.30 to 7.00
